Test system: SC27B
Test: qHTS profiling for inhibitors of Plasmodium falciparum proliferation (AID 504749); further: nearly all actives have a fitted effect of over 60% in size
Settings: P. falciparum in erythrocytes, SYBR Green DNA, 72 h; series mostly up to 28.7 µM
Results filed as inconclusive are left out. Active and inactive are the calls of the source. The call rests on the fitted dose curve; in most records, active means well fitted inhibition curve with a large enough effect; inconclusive means small, poorly fitted or top-dose-only effect; inactive means flat fitted curve, though single readings scatter. Numbered stars: 1 amine (or outer) side, 2 acyl side, 3 side chain; on linkers, the order of the positions; unused ones are H or OH. Bridge positions count the residues as written; N and C are the ends. Square brackets hold non-standard residues; d marks the D form. Peptide text beside a SMILES is read from it. * marks the point of attachment. ξ: configuration not given here. ΔAla(Z-3-ureido) = NC(=O)N/C=C(\N)C(=O)O; ξDab(CH2SO3H) = NC(CCNCS(=O)(=O)O)C(=O)O; X2 = NC1=NC(O)CC(C(N[*:1])C(=O)[*:2])N1; Heptanoyl(6-Me) = CC(C)CCCCC(=O)*; ξβ3hOrn = NCCCC(N)CC(=O)*; Dab = NCC[CH](N)C(=O)O; Dap = NC[CH](N)C(=O)O
Choose one outcome from this list and give only that: active, inactive

Consider the following illustrative entries.
[[record]]
compound = "NCCCC(N)CC(=O)NC1CNC(=O)C(C2CC(O)N=C(N)N2)NC(=O)/C(=C/NC(N)=O)NC(=O)C(CO)NC(=O)C(CO)NC1=O (stereo not drawn) (ξβ3hOrn-[Dap]SS[ΔAla(Z-3-ureido)][X2]; lactam 1-C; configuration not given here)"
class = "inactive"

[[record]]
compound = "O=C(O)c1ccccc1-c1c2cc(Br)c(=O)c(Br)c-2oc2c(Br)c(O)c(Br)cc12"
class = "inactive"

[[record]]
compound = "O=C(OCC1OC(OC(=O)c2cc(O)c(O)c(OC(=O)c3cc(O)c(O)c(O)c3)c2)[C@@H](OC(=O)c2cc(O)c(O)c(OC(=O)c3cc(O)c(O)c(O)c3)c2)C(OC(=O)c2cc(O)c(O)c(OC(=O)c3cc(O)c(O)c(O)c3)c2)C1OC(=O)c1cc(O)c(O)c(OC(=O)c2cc(O)c(O)c(O)c2)c1)c1cc(O)c(O)c(OC(=O)c2cc(O)c(O)c(O)c2)c1 (stereo not given in full)"
class = "active"

[[record]]
compound = "CC(C)C(NC(=O)C(CC(=O)O)NC(=O)C(CCCCN)NC(=O)C(N)CCCN=C(N)N)C(=O)NC(Cc1ccc(O)cc1)C(=O)O (stereo not given) (H-RKDVY-OH; configuration not given here)"
class = "inactive"

[[record]]
compound = "CC(N)C(=O)NCC(=O)NC1CSSCC(C(=O)O)NC(=O)C(CO)NC(=O)C(C(C)O)NC(=O)C(Cc2ccccc2)NC(=O)C(C(C)O)NC(=O)C(CCCCN)NC(=O)C(Cc2c[nH]c3ccccc23)NC(=O)C(Cc2ccccc2)NC(=O)C(Cc2ccccc2)NC(=O)C(CC(N)=O)NC(=O)C(CCCCN)NC1=O (stereo not given)"
class = "inactive"


Test call for this compound, please: CCC(C)C1NC(=O)C(CCNCS(=O)(=O)O)NC(=O)C(NC(=O)C(CCNCS(=O)(=O)O)NC(=O)C(NC(=O)C(CCNCS(=O)(=O)O)NC(=O)CCCCC(C)C)C(C)O)CCNC(=O)C(C(C)O)NC(=O)C(CCNCS(=O)(=O)O)NC(=O)C(CCNCS(=O)(=O)O)NC(=O)C(C(C)CC)NC1=O (stereo not given) ({Heptanoyl(6-Me)}-[ξDab(CH2SO3H)]T[ξDab(CH2SO3H)][Dab][ξDab(CH2SO3H)]II[ξDab(CH2SO3H)][ξDab(CH2SO3H)]T; lactam 4-C; configuration not given here) inactive

Test call for this compound, please: CC(=O)OCC1=C(C(=O)O)N2C(=O)C(NC(=O)Cc3ccccc3)C2SC1 (stereo not given) inactive

Test call for this compound, please: `O=C1/C(=C\c2cccs2)CCC/C1=C/c1cccs1` inactive

Test call for this compound, please: `Cn1cc(O)nc1NC(=O)Nc1cccc(Cl)c1` inactive

Test call for this compound, please: CC(C)CC(NC(=O)C(COC(C)(C)C)NC(=O)C(Cc1ccc(O)cc1)NC(=O)C(CO)NC(=O)C(Cc1c[nH]c2ccccc12)NC(=O)C(Cc1cnc[nH]1)NC(=O)C1CCC(=O)N1)C(=O)NC(CCCN=C(N)N)C(=O)N1CCCC1C(=O)NNC(N)=O (stereo not given) inactive
